assay: chemical genetic growth profiling, strain panel (AID 1159580);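 note: tested at 20 µM; growth read once vehicle control cultures reached saturation at 30 °C; lower values mean less growth of the strain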; settings: S. cerevisiae deletion strains, growth OD, locus YDR162C, strain NBP2
Among all 5,500 compounds or so, about 2,000 (36%) were called active. About 18% were inconclusive and are not listed. Cut-off read from the data, not from the text of the source: active = normalized growth mostly below about 0.91 (no sharp cut-off); inconclusive = no clear call, values can overlap the other calls; inactive = mostly above about 0.92. The list shows a part of the results.
Classes used: Y = active, N = inactive

>  <Compound>
O=C(/C=C/c1ccccc1)c1ccc(O[C@@H]2O[C@H](CO)[C@@H](O)[C@H](O)[C@H]2O)cc1O

>  <Answer label>
N

$$$$
>  <Compound>
ClC1C(Cl)C(Cl)C(Cl)C(Cl)C1Cl (configuration not stated)

>  <Answer label>
N

$$$$
>  <Compound>
CN1C(=O)CC[C@H]1c1cccnc1

>  <Answer label>
N

$$$$
>  <Compound>
COC(=O)C[C@H]1C(C)(C)[C@H](O)[C@@H]2CC3=C4CC(O)O[C@@H](c5ccoc5)[C@]4(C)CCC3[C@@]1(C)C2=O (some centres not stated)

>  <Answer label>
N

$$$$
>  <Compound>
COc1cc(OC)c2c(OC)c(-c3ccc4c(c3)OCO4)c(=O)oc2c1

>  <Answer label>
N

$$$$
>  <Compound>
CC(=O)OC1CCC2(O)CC1(C)CCC1C2CC1(C)C (configuration not stated)

>  <Answer label>
N

$$$$
>  <Compound>
OC[C@H]1O[C@@H](Oc2ccc(O)cc2)[C@H](O)[C@@H](O)[C@@H]1O

>  <Answer label>
N

$$$$
>  <Compound>
CC(=O)CCCCn1c(=O)c2c(ncn2C)n(C)c1=O

>  <Answer label>
N

$$$$
>  <Compound>
CC(C)[C@@H]1CC[C@@H](C)CC1=O

>  <Answer label>
N

$$$$
>  <Compound>
O=C(/C=C/c1ccc(O)cc1)c1ccc(O)cc1O

>  <Answer label>
N

$$$$
>  <Compound>
O=c1c(O)cccc2cc(O)c(O)c(O)c12

>  <Answer label>
Y

$$$$
>  <Compound>
Cn1cnc2c1c(=O)[nH]c(=O)n2C

>  <Answer label>
N

$$$$
>  <Compound>
CC(=O)OC1CCC23CC1(C)CCC2C(C)(C)CC3OC(C)=O (configuration not stated)

>  <Answer label>
N

$$$$
>  <Compound>
C[C@H]1C(=O)CCC2[C@]3(C)CC[C@@]4(C)C5CC(C)(C)CC[C@]5(C)CC[C@]4(C)C3CC[C@@]21C (some centres not stated)

>  <Answer label>
N

$$$$
>  <Compound>
Cn1c(=O)[nH]c2nc[nH]c2c1=O

>  <Answer label>
N

$$$$
>  <Compound>
COc1cc(Cc2cnc(N)nc2N)cc(OC)c1OC

>  <Answer label>
N

$$$$
>  <Compound>
COC(=O)c1cc(OC)c(=O)c2c(OC)c(OC)ccc2c1

>  <Answer label>
N

$$$$
>  <Compound>
COc1cc2cccc(OC)c(=O)c2c(OC)c1OC

>  <Answer label>
N

$$$$
>  <Compound>
NS(=O)(=O)c1cc2c(cc1Cl)NCNS2(=O)=O

>  <Answer label>
N

$$$$
>  <Compound>
NC(Cc1ccc(Cl)cc1)C(=O)O (configuration not stated)

>  <Answer label>
N

$$$$
>  <Compound>
CNC(C)(C)Cc1ccccc1

>  <Answer label>
N

$$$$
>  <Compound>
C[N+]1(C)CCCC(OC(=O)C(O)(c2ccccc2)c2ccccc2)C1 (configuration not stated)

>  <Answer label>
N

$$$$
>  <Compound>
O=C(/C=C/c1ccccc1)c1c(O)cc(O)cc1O

>  <Answer label>
N

$$$$
>  <Compound>
CC(C)c1cc2c(c(O)c1O)[C@@]1(C(=O)O)CCCC(C)(C)C1CC2 (some centres not stated)

>  <Answer label>
N

$$$$
>  <Compound>
CC(C)=CCC/C(C)=C/CO

>  <Answer label>
N

$$$$
>  <Compound>
COc1ccc(CC(=O)c2ccc(O)cc2O)cc1

>  <Answer label>
N

$$$$
>  <Compound>
CC(C)OC(=O)Nc1cccc(Cl)c1

>  <Answer label>
N

$$$$
>  <Compound>
COc1ccc(/C=C/c2cc(O)cc(O[C@@H]3O[C@H](CO)[C@@H](O)[C@H](O)[C@H]3O)c2)cc1

>  <Answer label>
N

$$$$
>  <Compound>
CC(=O)OCC1=C(C(=O)O)N2C(=O)[C@@H](NC(=O)CSc3ccncc3)[C@H]2SC1

>  <Answer label>
N

$$$$
>  <Compound>
O=c1c(O)c(-c2ccccc2)oc2ccccc12

>  <Answer label>
N

$$$$
>  <Compound>
NC(=NCCCCCCN=C(N)N=C(N)Nc1ccc(Cl)cc1)N=C(N)Nc1ccc(Cl)cc1

>  <Answer label>
Y

$$$$
>  <Compound>
CC(NC(C)(C)C)C(=O)c1cccc(Cl)c1 (configuration not stated)

>  <Answer label>
N

$$$$
>  <Compound>
COc1ccccc1OCC(O)COC(N)=O (configuration not stated)

>  <Answer label>
N

$$$$
>  <Compound>
COc1ccc([C@@H](C)C(=O)c2ccc(O)cc2O)cc1

>  <Answer label>
N

$$$$
>  <Compound>
COc1cc(O)ccc1C(C)=O

>  <Answer label>
N

$$$$
>  <Compound>
O=C1c2cccc(O)c2C(=O)c2c(O)cccc21

>  <Answer label>
Y

$$$$
>  <Compound>
COC(=O)C(O)[C@H]1C(C)(C)[C@@H](OC(C)=O)[C@@H]2CC3=C4CC(=O)O[C@@H](c5ccoc5)[C@]4(C)CCC3[C@@]1(C)C2=O (some centres not stated)

>  <Answer label>
N

$$$$
>  <Compound>
CC(C)N=C(N)N=C(N)Nc1ccc(Cl)cc1

>  <Answer label>
N

$$$$
>  <Compound>
C[C@]12[C@H](O)CC3C(CC[C@@H]4C[C@@H](O)CC[C@]34C)[C@@]1(O)CC[C@@H]2C1=CC(=O)OC1 (some centres not stated)

>  <Answer label>
N

$$$$
>  <Compound>
CC(C)N1C(=O)c2ccccc2NS1(=O)=O

>  <Answer label>
N

$$$$
>  <Compound>
Cn1c(=O)[nH]c2ncn(C)c2c1=O

>  <Answer label>
N

$$$$
>  <Compound>
O=C(CCc1ccc(O)cc1)c1c(O)cc(O)cc1O

>  <Answer label>
N

$$$$
>  <Compound>
Cn1c(=O)c2c(ncn2C)n(C)c1=O

>  <Answer label>
N

$$$$
>  <Compound>
O=C(O)CC[N+](=O)[O-]

>  <Answer label>
N

$$$$
>  <Compound>
O=C(O)c1cc(O)c2c(c1)C(=O)c1cc(O)cc(O)c1C2=O

>  <Answer label>
N

$$$$
>  <Compound>
O=C(c1ccccc1)c1ccc2n1CCC2C(=O)O (configuration not stated)

>  <Answer label>
N

$$$$
>  <Compound>
COc1ccc(NS(=O)(=O)c2ccc(N)cc2)nn1

>  <Answer label>
N

$$$$
